# Method: yeast display, Sf9 membrane polyspecificity reagent, FACS + sequencing; frameworks hold sequencing errors
Parameter: polyreactivity (PSR sort gate)

[[record]]
ordered_residues = "QVQLVESGGGLVQAGGSLRLSCAASGRIFGVNAMGWYRQAPGKERELVADISSGGSTYYADSVKGRFTISRDNAKNTVNLQMNSLTPEYTAVYYCAVDKSVYVSYSFYFEYDYWGQGTQVTVSS"
result = "low polyreactivity"

[[record]]
ordered_residues = "QVQLVESGVGIVQAGGSLRLICAASGSTFTIYAMGWYRQAPGKERELVAAITWNGGSTYYADSVKGRFTISRDNAKKTVYLQMNSLKPEDTAVYYCAAKFRYQYVRVAREYYYWGQGTQVTVSS"
result = "high polyreactivity"

[[record]]
ordered_residues = "QVHLVESGGGLVQAGGSLRLSCAASGSTFSGYTMGWYRQAPGKEREFVAAISSRGGSTYYADSVKGRFTISRDNAKNSVYLQMNSVNPEDTAVYYCAAKVWARVDGRQFRLEYWGQGTQVTVSS"
result = "high polyreactivity"

[[record]]
ordered_residues = "QVQLVESGGGLVQAGGSLRLSCSASGLTLKRYAMGWYRQAPGQERELVAAISKSGGSTYYADSVKGRFTISRDNAKNTVYLQMNSLKPEDTAVYYCAADSYNLWDDYWGQGTQVTVSS"
result = "low polyreactivity"


---

# Method: yeast display, Sf9 membrane polyspecificity reagent, FACS + sequencing; frameworks hold sequencing errors
Parameter: polyreactivity (PSR sort gate)

Guide cases for polyreactivity (PSR sort gate), answers given:
[[record]]
ordered_residues = "QVQLVESGGGLVQAGGSLRLSCAASGFTFAYYAMGWYRQAPGKERELVAAISERGGSTYYADSVKGRFTISRDNAKNTVYLQMNSLKPEDTAVYYCARTFWDYPWYQSSYYSWGQGTQVTVSS"
result = "low polyreactivity"

[[record]]
ordered_residues = "QVQLVESGGGLVQAGGSLRLSCAASGFTFVYYVMGWYRQAPGKERELVAAIRSGDGNTHYADTEKGRFTISRDNAKNTVYLQMNSLKPEDTAVYYCAASSRTFGYKYFYWGQGTQVTVSS"
result = "high polyreactivity"

[[record]]
ordered_residues = "QLQLLESDGGLVQAGVSLRLSCATSAMTISRYTMGWYRQAPGKARELVAVITYRGGSTYYADSVKGRFTISRDNAKNTVYLQMNSLKPEDTAVYYCAAGRRTYGLTYDYWGQGTQVTVSS"
result = "high polyreactivity"

[[record]]
ordered_residues = "QVQLVESVGGLVQAGGSLRLSCAASGSIEAYAMGWYRQAPGKERELVASITWRGGSTYYADSVKGRFTISRDNAKNTVYLQMNSLKPEDTAVYYCAAGFQTRTPLNQFDYWGQGTQVTVSS"
result = "low polyreactivity"

[[record]]
ordered_residues = "QVQLVESGGGLVQAGGSLRLSCAASGSIFVYNDMGGYRQAPGKERELVAGIDWSGDRTYADSVKGRFTISRDNAKNTVYLQMNSLKPEDTAVYYCIADEWRWDEILPYAVDYWGQGTQVTVSS"
result = "low polyreactivity"


Prompt line: What value of polyreactivity (PSR sort gate) has been reported for the following sequence? QVQLVESGGGLVQAGGSLRLSCAASGRTLKYNPMGWYRQAPGKERELVAAISRSGGRTYYADSVKGRFTIARDIAKYSVYSQINSLKPEDTAVYYCARESSYYKYYYWGQGTQVTLSS
Response line: high polyreactivity
